Data credit: paper PMC7769672

Entries annotated with measured pIC50
test system: RAW 264.7 cells; experiment: NO assay (nitrite by Griess reagent in LPS-stimulated cells); type: cell-based, murine; conditions: Mus musculus, RAW264.7; Table 3, isolated compounds; read-out: NO assay IC50
pIC50: −log10 of the molar value.

compound	pIC50
COC(=O)C1OC(Oc2c(-c3ccc(O)c(O)c3)oc3cc(O)cc(O)c3c2=O)C(O)C(O)C1O (centres unmarked) [Compound 6, quercetin-3-(6-methylglucuronide)]	< 4.00
COc1ccc(/C=C/C(=O)OC(C(=O)O)C(O)C(=O)O)cc1O (centres unmarked)	< 4.00
CC1(C)C[C@H](O)C[C@@]2(C)OC(=O)C=C12 [Compound 1, loliolide]	< 4.00
O=C(O)C1OC(Oc2c(-c3ccc(O)c(O)c3)oc3cc(O)cc(O)c3c2=O)C(O)C(O)C1O (centres unmarked) [Compound 3, quercetin-3-O-glucuronide]	< 4.00
[H]/N=C(/NC)NCCC[C@H](N)C(=O)O [L-NMMA, reference compound]	4.84
O=c1c(O[C@@H]2O[C@H](CO)[C@@H](O)[C@H](O)[C@H]2O)c(-c2ccc(O)c(O)c2)oc2cc(O)cc(O)c12 [Compound 2, quercetin-3-O-glucoside]	< 4.00
COC(=O)C1OC(Oc2c(-c3ccc(O)cc3)oc3cc(O)cc(O)c3c2=O)C(O)C(O)C1O (centres unmarked) [Compound 5, kaempferol-3-(6-methylglucuronide)]	< 4.00
O=c1c(O)c(-c2ccc(O)c(O)c2)oc2cc(O)cc(O)c12	4.53
